# testedSystem: T1, human PD-L1-Fc protein (human, UniProt Q9NZQ7 19-239)
# T1 construct: Bought from R&D Systems; also called immobilised PD-L1-Fc; not shown: Fc part of the bought fusion protein, not described
# T1 sequence (Q9NZQ7 19-239 limits assumed): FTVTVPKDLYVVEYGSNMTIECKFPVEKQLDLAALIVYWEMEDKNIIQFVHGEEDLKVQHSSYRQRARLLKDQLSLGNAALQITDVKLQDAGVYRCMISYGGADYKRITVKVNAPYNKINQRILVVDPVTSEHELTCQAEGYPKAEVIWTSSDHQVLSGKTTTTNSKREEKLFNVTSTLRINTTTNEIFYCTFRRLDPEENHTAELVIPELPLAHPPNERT
# testName: BIAcore off rate, unpurified periplasmic extract Fab on PD-L1, pH 7.4
# key: entry, value: koff
experimentalReadout: koff (s⁻¹)

[[record]]
binder = "Fab 8A04 (Fab, V domains shown, Purified Fab prepared from IgG with the Pierce kit; also called 8A04 Fab) VH: QVQLVQSGGGVVQPGRSLRLSCAASGFTFSSYGMYWVRQAPGKGLEWVAVISYDGSNKYYADSVKGRFTISRDNSKNTLNLQMNSLRAEDTAVYYCAKGALTHWGVVIGDGMDVWGQGTTVTVSS VL: NFMLTQPHSVSESPGKTVTISCMRTGTGNKGHYTRWYQQRPGSSPTTVIYEDDQRPSGVPDRFSGSIDSSSNSASLTISGLKTEDEADYYCQSFDSTNPWVFGGGTKLTVL"
measuredresult = 0.015

[[record]]
binder = "Fab 8D04 (Fab, V domains shown, Purified Fab prepared from IgG with the Pierce kit; also called 8D04 Fab) VH: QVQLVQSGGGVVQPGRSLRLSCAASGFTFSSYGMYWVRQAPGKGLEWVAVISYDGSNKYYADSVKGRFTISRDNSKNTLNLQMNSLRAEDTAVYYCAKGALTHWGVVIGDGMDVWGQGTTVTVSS VL: NFMLTQPHSVSESPGKTVTISCRGTGSSFHHKYVRWYQQRPGSSPTTVIYEDDQRPSGVPDRFSGSIDSSSNSASLTISGLKTEDEADYYCQSFDSTNPWVFGGGTKLTVL"
measuredresult = 0.0275

[[record]]
binder = "Fab 8D06 (Fab, V domains shown, Purified Fab prepared from IgG with the Pierce kit; also called 8D06 Fab) VH: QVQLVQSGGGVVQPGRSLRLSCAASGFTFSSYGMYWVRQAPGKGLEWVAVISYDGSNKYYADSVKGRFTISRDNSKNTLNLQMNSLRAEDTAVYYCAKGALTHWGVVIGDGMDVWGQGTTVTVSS VL: NFMLTQPHSVSESPGKTVTISCVLSPRTHAGHYYRWYQQRPGSSPTTVIYEDDQRPSGVPDRFSGSIDSSSNSASLTISGLKTEDEADYYCQSFDSTNPWVFGGGTKLTVL"
measuredresult = 0.00345

